Entries and their measured GI50 follow.
system: HCC 2998; experiment: NCI tumour cell line growth inhibition, 48 h
Calls of active or inactive are those of the source. Cut-off read from the data, not from the text of the source: active = GI50 up to about 1.1 µM and inactive = higher.

A selection of reference data follows.
CCOC(=O)c1cnccc1CC1(C#N)c2ccccc2C=CN1C(=O)c1ccccc1 (stereo unspecified) ... 30.3 µM (inactive)
Cc1ccc(/C=C2\NC(=S)NC2=O)cc1 ... > 100 µM (inactive)
CSCCC(NC(=O)Cc1ccc(C(=O)c2ccccc2)cc1)C(=O)O (stereo unspecified) ... > 100 µM (inactive)

Problem: Need GI50, item `O=C(C=P(c1ccccc1)(c1ccccc1)c1ccccc1)c1ccc(-c2cccc([N+](=O)[O-])c2)cc1`
Solution: 1.66 µM (inactive)

Problem: Need GI50, item `CCOC(=O)C(=Cc1ccc(C(=O)OC)cc1)C(=O)OCC`
Solution: 4.06 µM (inactive)

Problem: Need GI50, item CCOC(CBr)OC1C(=O)OCC1(C)C (stereo unspecified)
Solution: > 100 µM (inactive)
